Quick list: PBM binding z-score per entry.
System: LXRa:RXRa (NR concentration 270 nM, RXRa partner concentration 90 nM)
Assay: PBM binding z-score (relative to random genomic background probes); higher = stronger binding; sequences stand for … in GC…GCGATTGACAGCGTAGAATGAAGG
Readout Type: PBM binding z-score

>  <Entry Sequence>
ATATGTAGATTATCGGGTCATTCAGTTTGCGCAT

>  <Tested On>
LXRa:RXRa (NR concentration 270 nM, RXRa partner concentration 90 nM)

>  <Endpoint Value>
2.5

$$$$
>  <Entry Sequence>
TAGCCTAGGTCAGATCGGGCCAGGATACGCTATA

>  <Tested On>
LXRa:RXRa (NR concentration 270 nM, RXRa partner concentration 90 nM)

>  <Endpoint Value>
1.02

$$$$
>  <Entry Sequence>
CCTGGTTGGTCAAGGTCACACACGCTATAGGTAC

>  <Tested On>
LXRa:RXRa (NR concentration 270 nM, RXRa partner concentration 90 nM)

>  <Endpoint Value>
4.07

$$$$
>  <Entry Sequence>
CCGACTGGGGGAAGGTTACCATAACGCACAGCCA

>  <Tested On>
LXRa:RXRa (NR concentration 270 nM, RXRa partner concentration 90 nM)

>  <Endpoint Value>
1.05

$$$$
>  <Entry Sequence>
GCTAGCAGGGCATTTGGGTCACTCAATGACGGGC

>  <Tested On>
LXRa:RXRa (NR concentration 270 nM, RXRa partner concentration 90 nM)

>  <Endpoint Value>
0.383

$$$$
>  <Entry Sequence>
ACTACTTGGTCAGCTGAGGTCACACACAATTCGG

>  <Tested On>
LXRa:RXRa (NR concentration 270 nM, RXRa partner concentration 90 nM)

>  <Endpoint Value>
3.9

$$$$
>  <Entry Sequence>
CCAAGTTGGTCAGGAGGTCACACACCGGATATGA

>  <Tested On>
LXRa:RXRa (NR concentration 270 nM, RXRa partner concentration 90 nM)

>  <Endpoint Value>
3.62

$$$$
>  <Entry Sequence>
CCTAGTTGGTCAGAAGGTCACACACCGGATATGA

>  <Tested On>
LXRa:RXRa (NR concentration 270 nM, RXRa partner concentration 90 nM)

>  <Endpoint Value>
3.45

$$$$
>  <Entry Sequence>
TCTTGTAGATCAACAGGAAGTTAAGAAAGATCGA

>  <Tested On>
LXRa:RXRa (NR concentration 270 nM, RXRa partner concentration 90 nM)

>  <Endpoint Value>
0.0523

$$$$
>  <Entry Sequence>
CCTAGCAGGCCATTCTGGGTCACTCAAGGCTTGA

>  <Tested On>
LXRa:RXRa (NR concentration 270 nM, RXRa partner concentration 90 nM)

>  <Endpoint Value>
4.53

$$$$
>  <Entry Sequence>
CCGACTGGGGCAAAGGTTAGCATACTCAGTACGA

>  <Tested On>
LXRa:RXRa (NR concentration 270 nM, RXRa partner concentration 90 nM)

>  <Endpoint Value>
0.762

$$$$
>  <Entry Sequence>
CCTACTGGGCCAAAGGTCGTTGATTCCAATGCTC

>  <Tested On>
LXRa:RXRa (NR concentration 270 nM, RXRa partner concentration 90 nM)

>  <Endpoint Value>
1.46

$$$$
